test system: Mycobacterium tuberculosis; test: Antitubercular activity against Mycobacterium tuberculosis H37Rv expressing inhA M103I mutant assessed as parasite growth inhibition after 7 days by Alamar Blue assay; format: functional
The entries below are paired with their reported MIC.
Record the value in µg/mL, omitting the unit from your answer.

Reference set, count: 2
>  <item_smiles>
COc1c(N2C[C@@H]3CCCN[C@@H]3C2)c(F)cc2c(=O)c(C(=O)O)cn(C3CC3)c12

>  <assay_system>
Mycobacterium tuberculosis

>  <MIC, µg/mL>
0.12

$$$$
>  <item_smiles>
NNC(=O)c1ccncc1

>  <assay_system>
Mycobacterium tuberculosis

>  <MIC, µg/mL>
0.06

$$$$

Provide one value: measured MIC of `CO[C@H]1/C=C/O[C@@]2(C)Oc3c(C)c(O)c4c(O)c(c(/C=N/N5CCN(C)CC5)c(O)c4c3C2=O)NC(=O)/C(C)=C\C=C\[C@H](C)[C@H](O)[C@@H](C)[C@@H](O)[C@@H](C)[C@H](OC(C)=O)[C@@H]1C` 0.007
